System: NCI-H522 lung
Test: NCI-60 one-dose screen, 48 h (100 = growth as untreated, 0 = no growth, -100 = all killed)
Details: 10 µM unless noted
Compounds without any hit were thinned out: in the full panel of roughly 83,000, 20% have a hit.
Would you mind sorting the entries by growth according to these classes? low (below -20%), moderate (-20% to below 30%), high (30% or more)

Cc1cc(NS(=O)(=O)c2ccc(-c3cnc(C4CC4)o3)cc2)ccc1Cl ... moderate
CC1=C[C@H]2c3c(c(O)c(O)c4oc5ccccc5c(=O)c34)[C@H](c3cc(O)c(O)c4oc5ccccc5c(=O)c34)[C@H]2C(C)(C)C1 ... moderate
CCC(=O)c1ccc(Cl)s1 ... high

[ask] Dear colleague, I would appreciate it if you could identify the bin for `COc1cc(-c2nc(C(=O)NCC(=O)NO)nn2-c2ccc(Cl)cc2)cc(OC)c1OC` and reply at your convenience.
[reply] high

[ask] Dear colleague, I would appreciate it if you could identify the bin for `COc1ccc(CN2c3ccccc3Sc3ccccc32)c(C(F)(F)F)c1` and reply at your convenience.
[reply] low

[ask] Dear colleague, I would appreciate it if you could identify the bin for `Cc1cc(N2CCOCC2)nc(N[C@@H]2CCC[C@H](Nc3ccnc4cc(Cl)ccc34)C2)n1` and reply at your convenience.
[reply] low

[ask] Dear colleague, I would appreciate it if you could identify the bin for `O=c1nc2oc3ccc4ccccc4c3cc-2s1` and reply at your convenience.
[reply] moderate

[ask] Dear colleague, I would appreciate it if you could identify the bin for `COc1ccc(/C=C/C(=O)c2ccc(O)c(CN3CCN(c4cc5c(cc4F)c(=O)c(C(=O)O)cn5C4CC4)CC3)c2)cc1` and reply at your convenience.
[reply] moderate

----------
Test system: NCI-H460 lung
Experiment: NCI-60 one-dose screen, 48 h (100 = growth as untreated, 0 = no growth, -100 = all killed)
Conditions: 10 µM unless noted
About 83,000 compounds went through this panel and 20% of them were active in at least one assay; those are over-represented in the sample as a whole. The source made the active and inactive calls. Rule for the calls: active = growth percent below 10; inactive = the rest.
endpoint_name: growth

Some compounds with known growth results, for comparison:
COc1ccc(S(=O)(=O)N2CCN(C)CC2)cc1NC(=O)c1[nH]c(C)c2c1CCCCC2=O ... 73.3% (inactive)
O=C1/C(=C/C(Cl)=C/c2ccccc2)SC(=S)N1CCc1ccc(O)cc1 ... 0.138% (active)
CCN1CCC2(CC1)NC(=O)c1c(c3ccc(Cl)c(Cl)c3n1C)C2C#N (stereo not given) ... 54.6% (inactive)
CCOC(=O)c1c(CN2CCN(C)CC2)nc2ccc(Cl)cc2c1-c1ccccc1 ... 59.5% (inactive)
CSc1nc(NCc2ccccc2)c(C#N)c(-c2cccc([N+](=O)[O-])c2)n1 ... 97% (inactive)

Short answer for `O=C1c2cccc3cccc(c23)C(=O)N1CCCCN1CCN(CCCCOc2ccc(-c3nc4ccc(N5CCOCC5)cc4[nH]3)cc2)CC1` : growth was 75% (inactive)

----------
Test system: HT29 colon
Experiment: NCI-60 one-dose screen, 48 h
Details: 10 µM unless noted
Compounds without any hit were thinned out: in the full panel of roughly 83,000, 20% have a hit. Calls of active or inactive are those of the source. Rule for the calls: active = growth percent below 10; inactive = the rest.
Would you mind answering with one of these outcomes? active, inactive

CCN=C1C=CC(=C(c2ccc(N)cc2)c2ccc(N(CC)CC)c(C)c2)C=C1 ... active
COc1cc(-c2nn(-c3ccc(Br)cc3)cc2C(=O)O)ccc1O ... inactive
COc1cccc(/C=C2\Oc3cc(OCCN4CCCC4)ccc3C2=O)c1 ... inactive
O=C1/C(=C/c2ccccc2O)N=C2SCCCN12 ... inactive
OC(c1cc2cc(Cl)c(Cl)cc2c2cc(C(F)(F)F)ccc12)C1CCCCN1 (stereo not given) ... active
CC(=O)c1cc2c(N)c(C(=O)Nc3cccc4ccccc34)sc2nc1C ... active
CC(C)(C)N1CCC1CN (stereo not given) ... inactive
Cn1c(O)c(N=NC(=O)c2cc(-c3ccccc3)on2)c2ccccc21 ... inactive
CC(C)C1=C[C@@]23CC[C@@H]4[C@](C)(CCC[C@@]4(C)C(=O)N4CCCNCC4)[C@H]2C[C@@H]1[C@H]1C(=O)CCC(=O)[C@H]13 ... inactive

Here is the next item to consider.
[ask] Look up the recorded call for `O=c1nc2oc3ccc4ccccc4c3cc-2s1` in this test.
[reply] inactive
